Tested on: T-24
Test: The compound was tested for anti proliferative activity against Human T24 bladder carcinoma cells
Type: functional, cell-based
value_type: IC50

query: # value lookup — system T-24, readout IC50, item Cc1ncc(COP(=O)(O)O)c(/C=N/OCC(O)CN)c1O (centres undefined)
result: > 112 µM

query: # value lookup — system T-24, readout IC50, item CC(C)NCC(O)CON (centres undefined)
result: > 45.2 µM

query: # value lookup — system T-24, readout IC50, item Cc1ncc(COP(=O)(O)O)c(/C=N/OCC(F)CN)c1O (centres undefined)
result: 0.6 µM

query: # value lookup — system T-24, readout IC50, item C=CCNCC(O)CON (centres undefined)
result: > 230 µM

---

Tested on: T-24
Assay: Inhibitory activity against Human T24 bladder carcinoma cells
Assay type: functional, cell-based
value_type: pIC50
pIC50 here: minus log base 10 of the concentration, concentration in moles per litre.

query: Which measured pIC50 value corresponds to NC[C@@H](O)CON ?
result: 4.69

query: Which measured pIC50 value corresponds to NCC(F)CNN (configuration not stated) ?
result: 3.79

query: Which measured pIC50 value corresponds to NC[C@H](O)CON ?
result: 4.79

query: Which measured pIC50 value corresponds to NCCCON ?
result: 5.08

query: Which measured pIC50 value corresponds to CS(=O)(=O)OC(CN)CON (configuration not stated) ?
result: 3.95

query: Which measured pIC50 value corresponds to NCC(F)CON (configuration not stated) ?
result: 5.62

query: Which measured pIC50 value corresponds to NOCC(O)CON ?
result: 3.74

query: Which measured pIC50 value corresponds to NCC(O)CON (configuration not stated) ?
result: 4.61

query: Which measured pIC50 value corresponds to NCC(Cl)CON (configuration not stated) ?
result: 5.20

---

Molecular target: Ornithine decarboxylase (Rattus norvegicus, UniProt P09057)
Sequence (P09057 whole entry): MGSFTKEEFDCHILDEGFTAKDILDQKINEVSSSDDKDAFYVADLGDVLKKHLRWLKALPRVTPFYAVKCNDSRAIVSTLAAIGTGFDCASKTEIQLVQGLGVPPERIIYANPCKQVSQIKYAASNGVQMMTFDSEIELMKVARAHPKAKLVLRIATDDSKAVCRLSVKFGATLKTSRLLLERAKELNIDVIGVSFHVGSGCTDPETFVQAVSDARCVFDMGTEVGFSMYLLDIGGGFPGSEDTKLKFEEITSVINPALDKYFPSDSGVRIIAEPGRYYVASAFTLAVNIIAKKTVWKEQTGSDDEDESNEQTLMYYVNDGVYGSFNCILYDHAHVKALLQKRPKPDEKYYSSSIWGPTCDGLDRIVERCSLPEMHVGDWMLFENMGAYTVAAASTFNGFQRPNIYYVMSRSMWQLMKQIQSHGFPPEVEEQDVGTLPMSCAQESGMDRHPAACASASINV
pIC50: −log10 of the molar value.
Tick T if pIC50 is 7 or greater. Tick F if pIC50 is less than 7.

query: pIC50 >= 7 for NCC(F)CON (stereo not given) ?
result: T

query: pIC50 >= 7 for C=CCNCC(O)CON (stereo not given) ?
result: F

query: pIC50 >= 7 for NC[C@H](O)CON ?
result: T

query: pIC50 >= 7 for NCC(F)CNN (stereo not given) ?
result: F

query: pIC50 >= 7 for CNCC(O)CON (stereo not given) ?
result: F

query: pIC50 >= 7 for NC[C@@H](O)CON ?
result: T

query: pIC50 >= 7 for Cc1ncc(COP(=O)(O)O)c(/C=N/OCC(F)CN)c1O (stereo not given) ?
result: F

query: pIC50 >= 7 for CS(=O)(=O)OC(CN)CON (stereo not given) ?
result: F

query: pIC50 >= 7 for NCC(O)CON (stereo not given) ?
result: T
